B1: TRIM9 (parent)
chain: CVQCKMPVCYQCLEEGKHSSHEVK

# Variants of: B1
# Measurement notes: protein stability index of a GFP-peptide fusion (GPS, HEK-293T) (PSI 1-6); higher = more stable;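 also: lentivirally expressed fusions sorted by FACS into six bins by GFP to DsRed ratio, PSI derived from sequencing read proportions per bin multiplied by bin number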
# Details: c terminus: a fixed tail appended
Documented protein stability index across a set of variants
Lab note: record the figure alone, no unit after it.

Example entries and their recorded answers appear below.
* Q3F | 3.1
* E22D | 3.29
* K5Y | 2.56

Continue with the next variant.
IN: # lookup: protein stability index of "H21P"
OUT: 4.08
